Attribute: viability, T/C
System: 926638-142-R-J1-PDC complex spheroid viability
Assay: Anticancer human tumor 926638-142-R-J1-PDC patient-derived endometrial carcinoma cell line growth inhibition [POLQ]
Settings: second compound 0.316 µM; first compound 0.0316 µM; stronger effect = lower value
parameter: viability, T/C (%)

{"columns": ["molecule", "recorded-result"],
 "data": [
  ["CC1COCCN1c1cc(C2(S(C)(=N)=O)CC2)nc(-c2ccnc3[nH]ccc23)n1 (stereo not given) + COC1C(OC(N)=O)C(O)C(Oc2ccc3c(O)c(NC(=O)c4ccc(O)c(CC=C(C)C)c4)c(=O)oc3c2C)OC1(C)C", 107],
  ["CCc1cc2c(N3CCc4c(cc(Cn5ccnc5)cc4-c4cn(C)nc4C(F)(F)F)C3=O)ccnc2c(OC)n1 + Cc1cccc(N(C)C(=O)C2C(O)CCN2c2nc(C)cc(C(F)(F)F)c2C#N)c1", 70.8],
  ["Nc1ccn(C2OC(CO)C(O)C2(F)F)c(=O)n1 (stereo not given) + Nc1ccc(C#CCN(C(=O)Cc2ncc(C(F)(F)F)cc2C(F)(F)F)c2ccc(F)cc2)nn1", 91.2],
  ["CC1COCCN1c1cc(-c2ccnn2C)c2ccnc(-c3ccn[nH]3)c2n1 (stereo not given) + Nc1ccc(C#CCN(C(=O)Cc2ncc(C(F)(F)F)cc2C(F)(F)F)c2ccc(F)cc2)nn1", 104],
  ["CC1COCCN1c1cc(-c2ccnn2C)c2ccnc(-c3ccn[nH]3)c2n1 (stereo not given) + COC1C(OC(N)=O)C(O)C(Oc2ccc3c(O)c(NC(=O)c4ccc(O)c(CC=C(C)C)c4)c(=O)oc3c2C)OC1(C)C", 107]
]}

###

System: 926638-142-R-J1-PDC complex spheroid viability
Assay: Anticancer human tumor 926638-142-R-J1-PDC cell line growth inhibition [POLQ];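 note: spheroids exposed to drugs for one week before readout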
Conditions: curve of first compound; second compound 3.16 µM
pIC50: −log10 of the molar value.
Attribute: pIC50

{"columns": ["molecule", "pIC50"],
 "data": [
  ["C=CC(=O)N1CCN(c2nc(=O)n(-c3c(C)ccnc3C(C)C)c3nc(-c4c(O)cccc4F)c(F)cc23)C(C)C1 (centres undefined) + COC1C(OC(N)=O)C(O)C(Oc2ccc3c(O)c(NC(=O)c4ccc(O)c(CC=C(C)C)c4)c(=O)oc3c2C)OC1(C)C", "< 5.00"],
  ["CNCc1ccc(-c2[nH]c3cc(F)cc4c3c2CCNC4=O)cc1 + Cc1cccc(N(C)C(=O)C2C(O)CCN2c2nc(C)cc(C(F)(F)F)c2C#N)c1", "< 5.00"],
  ["O=C(c1cc(Cc2n[nH]c(=O)c3ccccc23)ccc1F)N1CCN(C(=O)C2CC2)CC1 + Cc1cccc(N(C)C(=O)C2C(O)CCN2c2nc(C)cc(C(F)(F)F)c2C#N)c1", "< 5.00"],
  ["O=C(c1cc(Cc2n[nH]c(=O)c3ccccc23)ccc1F)N1CCN(C(=O)C2CC2)CC1 + Nc1ccc(C#CCN(C(=O)Cc2ncc(C(F)(F)F)cc2C(F)(F)F)c2ccc(F)cc2)nn1", "< 5.00"],
  ["CNCc1ccc(-c2[nH]c3cc(F)cc4c3c2CCNC4=O)cc1 + Nc1ccc(C#CCN(C(=O)Cc2ncc(C(F)(F)F)cc2C(F)(F)F)c2ccc(F)cc2)nn1", "< 5.00"],
  ["CCc1c2c(nc3ccc(O)cc13)-c1cc3c(c(=O)n1C2)COC(=O)[C@]3(O)CC + COC1C(OC(N)=O)C(O)C(Oc2ccc3c(O)c(NC(=O)c4ccc(O)c(CC=C(C)C)c4)c(=O)oc3c2C)OC1(C)C", 7.92],
  ["COc1cccc2c1C(=O)c1c(O)c3c(c(O)c1C2=O)CC(O)(C(=O)CO)CC3OC1CC(N)C(O)C(C)O1 (centres undefined) + COC1C(OC(N)=O)C(O)C(Oc2ccc3c(O)c(NC(=O)c4ccc(O)c(CC=C(C)C)c4)c(=O)oc3c2C)OC1(C)C", 6.88],
  ["CCc1cc2c(N3CCc4c(cc(Cn5ccnc5)cc4-c4cn(C)nc4C(F)(F)F)C3=O)ccnc2c(OC)n1 + COC1C(OC(N)=O)C(O)C(Oc2ccc3c(O)c(NC(=O)c4ccc(O)c(CC=C(C)C)c4)c(=O)oc3c2C)OC1(C)C", 6.65],
  ["C=CCn1c(=O)c2cnc(Nc3ccc(N4CCN(C)CC4)cc3)nc2n1-c1cccc(C(C)(C)O)n1 + Cc1cccc(N(C)C(=O)C2C(O)CCN2c2nc(C)cc(C(F)(F)F)c2C#N)c1", 6.43],
  ["Cn1ncnc1[C@H]1c2n[nH]c(=O)c3cc(F)cc(c23)N[C@@H]1c1ccc(F)cc1 + Cc1cccc(N(C)C(=O)C2C(O)CCN2c2nc(C)cc(C(F)(F)F)c2C#N)c1", "< 7.00"],
  ["C#Cc1c(F)ccc2cc(O)cc(-c3ncc4c(N5CC6CCC(C5)N6)nc(OCC56CCCN5CC(F)C6)nc4c3F)c12 (centres undefined) + Cc1cccc(N(C)C(=O)C2C(O)CCN2c2nc(C)cc(C(F)(F)F)c2C#N)c1", "< 5.00"],
  ["CC1COCCN1c1cc(-c2ccnn2C)c2ccnc(-c3ccn[nH]3)c2n1 (centres undefined) + Nc1ccc(C#CCN(C(=O)Cc2ncc(C(F)(F)F)cc2C(F)(F)F)c2ccc(F)cc2)nn1", 6.45],
  ["CC1COCCN1c1cc(C2(O)CC3CCC(C2)O3)c2cnn(-c3ccn[nH]3)c2n1 (centres undefined) + Cc1cccc(N(C)C(=O)C2C(O)CCN2c2nc(C)cc(C(F)(F)F)c2C#N)c1", 6.84],
  ["COc1cc(C2c3cc4c(cc3C(OC3OC5COC(C)OC5C(O)C3O)C3COC(=O)C23)OCO4)cc(OC)c1O (centres undefined) + Cc1cccc(N(C)C(=O)C2C(O)CCN2c2nc(C)cc(C(F)(F)F)c2C#N)c1", "< 5.00"],
  ["C=CC(=O)N1CCN(c2nc(=O)n(-c3c(C)ccnc3C(C)C)c3nc(-c4c(O)cccc4F)c(F)cc23)C(C)C1 (centres undefined) + Nc1ccc(C#CCN(C(=O)Cc2ncc(C(F)(F)F)cc2C(F)(F)F)c2ccc(F)cc2)nn1", "< 5.00"],
  ["COc1cccc2c1C(=O)c1c(O)c3c(c(O)c1C2=O)CC(O)(C(=O)CO)CC3OC1CC(N)C(O)C(C)O1 (centres undefined) + Cc1cccc(N(C)C(=O)C2C(O)CCN2c2nc(C)cc(C(F)(F)F)c2C#N)c1", 6.94],
  ["Cn1ncnc1[C@H]1c2n[nH]c(=O)c3cc(F)cc(c23)N[C@@H]1c1ccc(F)cc1 + COC1C(OC(N)=O)C(O)C(Oc2ccc3c(O)c(NC(=O)c4ccc(O)c(CC=C(C)C)c4)c(=O)oc3c2C)OC1(C)C", "< 7.00"],
  ["CC[C@@]1(O)C(=O)OCc2c1cc1n(c2=O)Cc2cc3c(CN(C)C)c(O)ccc3nc2-1 + Cc1cccc(N(C)C(=O)C2C(O)CCN2c2nc(C)cc(C(F)(F)F)c2C#N)c1", "< 7.00"],
  ["CC(=O)O[C@H]1C(=O)[C@@]2(C)[C@H]([C@H](OC(=O)c3ccccc3)[C@]3(O)C[C@H](OC(=O)[C@H](O)[C@@H](NC(=O)c4ccccc4)c4ccccc4)C(C)=C1C3(C)C)[C@]1(OC(C)=O)CO[C@@H]1C[C@@H]2O + COC1C(OC(N)=O)C(O)C(Oc2ccc3c(O)c(NC(=O)c4ccc(O)c(CC=C(C)C)c4)c(=O)oc3c2C)OC1(C)C", "< 5.52"]
]}
